Target: T1, FZD10 cysteine-rich domain (CRD), MYC-tagged and GPI-anchored on CHO cells (human, UniProt Q9ULW2 30-156, GPI anchor)
T1 construct: also called FZD10 CRD; CHO-myc-FZDGPI; not shown: MYC tag and GPI anchor signal
T1 sequence: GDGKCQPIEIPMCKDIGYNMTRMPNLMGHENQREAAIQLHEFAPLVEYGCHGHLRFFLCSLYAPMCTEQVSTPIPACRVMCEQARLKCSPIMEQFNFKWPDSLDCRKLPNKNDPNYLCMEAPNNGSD
Assay: immunofluorescence, CHO-CRD cells
RECORDED METRIC: binding result

| BINDER | DATA VALUE |
| --- | --- |
| Fab-2898 (Fab, V domains shown, Fab; also called Fv-2898) VH: EVQLVESGGGLVQPGGSLRLSCAASGFNIYSYSMHWVRQAPGKGLEWVASIYSSSGSTSYADSVKGRFTISADTSKNTAYLQMNSLRAEDTAVYYCARAVWGLDYWGQGTLVTVSS VL: DIQMTQSPSSLSASVGDRVTITCRASQSVSSAVAWYQQKPGKAPKLLIYSASSLYSGVPSRFSGSRSGTDFTLTISSLQPEDFATYYCQQWWGYYSLITFGQGTKVEIK | no binding |
| Fab-2918 (Fab, V domains shown, Fab; also called Fv-2918) VH: EVQLVESGGGLVQPGGSLRLSCAASGFNLSYSSIHWVRQAPGKGLEWVASIYSSYSSTSYADSVKGRFTISADTSKNTAYLQMNSLRAEDTAVYYCARFGYWAIDYWGQGTLVTVSS VL: DIQMTQSPSSLSASVGDRVTITCRASQSVSSAVAWYQQKPGKAPKLLIYSASSLYSGVPSRFSGSRSGTDFTLTISSLQPEDFATYYCQQAFGASLFTFGQGTKVEIK | no binding |
| Fab-2907 (Fab, V domains shown, Fab; also called Fv-2907) VH: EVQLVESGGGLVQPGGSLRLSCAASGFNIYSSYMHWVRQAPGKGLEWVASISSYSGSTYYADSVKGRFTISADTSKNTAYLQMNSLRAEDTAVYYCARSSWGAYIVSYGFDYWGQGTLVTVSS VL: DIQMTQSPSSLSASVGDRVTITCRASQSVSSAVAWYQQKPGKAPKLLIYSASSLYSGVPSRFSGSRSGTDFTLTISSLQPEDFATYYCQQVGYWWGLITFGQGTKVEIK | no binding |
